test: yeast display, Sf9 membrane polyspecificity reagent, FACS + sequencing; frameworks hold sequencing errors
reported.property: polyreactivity (PSR sort gate)

>>> observed_result("QVQLVESGGGLVQAGGSLRLSCAASGSIFPLYAMGWYRQAPGKERELVAGINGNDGSTYYADSVKGRFTISRDYEKNTVYLQRNRLKPEDTAVYYCAARGSTAHPHYPFNYWGQGTQVTVSS")
"low polyreactivity"
>>> observed_result("QGQLVESGGALVQAGGSLRLSCAASGFILPIYAMAWYRQAPGKEREIVAAITWTGGSTYYADSVKGRFTISRDNAKNTVYLQMISLKPEDTAVYYCNVVSDIRLYYRYAYDYWGQGTQVTVSS")
"high polyreactivity"
>>> observed_result("QVQLVESGGGLVQAGGSLRLSCAASGFTFSAYAIGWYRQAPGKETELVAAITLRGGSTYYADSVKGRFTISRDNAKNTVYLQMNSLNPEDTAVYYCAAERIYVAYDYWGQGTQLTVSS")
"low polyreactivity"
>>> observed_result("QVQLVESGGGLVQAGGSLRLSCAASGGTLYLYAMGWYRQAPGKERELVAAISYNGGSTYAESVKGRFTISRDNAKNTVYLQKNSLKPEDTAVYYCAADRSPRGLGGYWGQGTQVTVSS")
"low polyreactivity"
>>> observed_result("QVQLVESGGGLVQAGGSLRLSCAASGITFFAYAMGWYRQPPGKERELVAAISSGGSTNYADSVKGRFTISRDNAKNTVYLQMNSLKPEDTAVYYCAAVRSDLGEEGYAGYVYWGQGTQVTVSS")
"low polyreactivity"
>>> observed_result("QVQLVESGGGLVQAGGSLRLSCAASGGTFKANAMGWYRQAPGKERELVAAIRQTGGSTYYADSVKGRFTISRDNAKNTVYLQMNSLKPEDTAVYYCAAQSHRYCIYDYWGQGTQVTVSS")
"high polyreactivity"
>>> observed_result("QVQLVESGGGLVQAGGSLRLSCAASGSIFLLYAMGWYSQAPGKVRELVAAISRSGDSTHYADSVKGRFTISRDNAKNTVYLQMNSLKPEDTAVYYCAADGYDPYGGLYDYWGQGTQVTVSS")
"low polyreactivity"
